test: Plasma protein binding in rat; assay type: ADME, cell-free; details: read-out: PPB (converted)
quantityKind: fraction unbound

A selection of reference data follows.
>>> number("CN1CCc2nc(C#Cc3ccccc3)sc2C1")
0.061
>>> number("CN1CCc2nc(C#Cc3ccccc3)sc2C1=O")
0.049

a = O=C(N1CCCC1)N1CCc2nc(C#Cc3ccccc3)sc2C1
b = O=C(C1CC(F)(F)C1)N1CCc2nc(C#Cc3ccccc3)sc2C1
Looking only at measured fraction unbound, which entry is lower, a or b ? API: response body contains the label of the selected item.
b

====

Listed here: items and their measured pIC50.
target: Metabotropic glutamate receptor 5 (Homo sapiens); assay: Negative allosteric modulation of human mGlu5 receptor expressed in HEK293 cells assessed as inhibition of L-glutamate-induced activity after 1 hr by FLIPR assay
Sequence (P41594 whole entry): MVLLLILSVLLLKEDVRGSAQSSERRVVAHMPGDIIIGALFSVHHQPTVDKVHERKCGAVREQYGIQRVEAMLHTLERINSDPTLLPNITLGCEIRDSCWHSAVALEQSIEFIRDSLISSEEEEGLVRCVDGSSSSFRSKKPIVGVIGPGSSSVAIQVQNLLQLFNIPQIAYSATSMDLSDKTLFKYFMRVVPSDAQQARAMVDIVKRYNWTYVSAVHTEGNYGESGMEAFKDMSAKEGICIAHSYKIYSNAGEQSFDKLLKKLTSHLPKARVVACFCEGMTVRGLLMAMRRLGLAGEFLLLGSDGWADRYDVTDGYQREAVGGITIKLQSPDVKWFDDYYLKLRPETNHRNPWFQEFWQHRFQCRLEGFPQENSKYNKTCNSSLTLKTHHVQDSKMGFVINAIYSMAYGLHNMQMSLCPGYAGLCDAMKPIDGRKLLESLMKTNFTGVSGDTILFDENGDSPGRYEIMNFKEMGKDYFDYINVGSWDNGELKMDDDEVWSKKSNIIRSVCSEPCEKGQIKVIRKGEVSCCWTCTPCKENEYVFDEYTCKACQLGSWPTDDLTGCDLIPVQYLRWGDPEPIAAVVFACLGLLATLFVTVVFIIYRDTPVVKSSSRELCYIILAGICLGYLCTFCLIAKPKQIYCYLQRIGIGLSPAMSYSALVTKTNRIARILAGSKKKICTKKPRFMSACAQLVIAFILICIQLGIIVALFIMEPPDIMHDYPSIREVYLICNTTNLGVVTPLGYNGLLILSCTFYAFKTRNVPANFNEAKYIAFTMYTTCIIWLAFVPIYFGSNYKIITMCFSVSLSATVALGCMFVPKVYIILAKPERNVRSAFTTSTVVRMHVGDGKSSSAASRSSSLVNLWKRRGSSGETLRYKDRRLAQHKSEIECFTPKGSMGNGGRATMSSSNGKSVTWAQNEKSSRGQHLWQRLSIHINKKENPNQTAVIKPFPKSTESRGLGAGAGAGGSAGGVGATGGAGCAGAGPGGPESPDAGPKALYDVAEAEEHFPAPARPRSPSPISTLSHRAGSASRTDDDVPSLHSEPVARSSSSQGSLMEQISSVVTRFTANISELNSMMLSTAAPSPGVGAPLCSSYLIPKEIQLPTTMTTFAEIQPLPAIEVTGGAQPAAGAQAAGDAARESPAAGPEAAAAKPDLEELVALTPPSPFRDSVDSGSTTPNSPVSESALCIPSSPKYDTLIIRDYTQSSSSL
pIC50: −log10 of the molar value.

A selection of reference data follows.
>>> result("O=C(N1CCc2nc(C#Cc3ccccc3)sc2C1)N1CCC(F)(F)C1")
"< 5.00"
>>> result("COc1ccccc1C#Cc1nc2c(s1)C(=O)NCC2")
"< 5.00"
>>> result("CC(C)S(=O)(=O)N1CCc2nc(C#Cc3ccccc3)sc2C1")
7.96
>>> result("CC1CC1C(=O)N1CCc2nc(C#Cc3ccccc3)sc2C1 (stereo not drawn)")
"< 5.00"

Sample CC(C)CCN1CCc2nc(C#Cc3ccccc3)sc2C1 — what was its pIC50?
< 5.00

State the recorded pIC50 for this entry: CCC(=O)N1CCc2nc(C#Cc3ccccc3)sc2C1
7.42

Form field: reported pIC50 of O=C(C1CC1)N1CCc2nc(C#Cc3ccccc3)sc2C1
6.54

Item O=C(C1CCCCC1)N1CCc2nc(C#Cc3ccccc3)sc2C1 has what recorded pIC50?
< 5.00

====

biological target: UniProt P41594; experiment: Negative allosteric modulation of human mGlu5 receptor expressed in HEK293 cells assessed as inhibition of L-glutamate-induced activity after 1 hr by FLIPR assay relative to control; type: cell-based; parameters: concentration or dose not given beside the values; conditions: concentration not given here
Sequence (P41594 21-1212 limits assumed): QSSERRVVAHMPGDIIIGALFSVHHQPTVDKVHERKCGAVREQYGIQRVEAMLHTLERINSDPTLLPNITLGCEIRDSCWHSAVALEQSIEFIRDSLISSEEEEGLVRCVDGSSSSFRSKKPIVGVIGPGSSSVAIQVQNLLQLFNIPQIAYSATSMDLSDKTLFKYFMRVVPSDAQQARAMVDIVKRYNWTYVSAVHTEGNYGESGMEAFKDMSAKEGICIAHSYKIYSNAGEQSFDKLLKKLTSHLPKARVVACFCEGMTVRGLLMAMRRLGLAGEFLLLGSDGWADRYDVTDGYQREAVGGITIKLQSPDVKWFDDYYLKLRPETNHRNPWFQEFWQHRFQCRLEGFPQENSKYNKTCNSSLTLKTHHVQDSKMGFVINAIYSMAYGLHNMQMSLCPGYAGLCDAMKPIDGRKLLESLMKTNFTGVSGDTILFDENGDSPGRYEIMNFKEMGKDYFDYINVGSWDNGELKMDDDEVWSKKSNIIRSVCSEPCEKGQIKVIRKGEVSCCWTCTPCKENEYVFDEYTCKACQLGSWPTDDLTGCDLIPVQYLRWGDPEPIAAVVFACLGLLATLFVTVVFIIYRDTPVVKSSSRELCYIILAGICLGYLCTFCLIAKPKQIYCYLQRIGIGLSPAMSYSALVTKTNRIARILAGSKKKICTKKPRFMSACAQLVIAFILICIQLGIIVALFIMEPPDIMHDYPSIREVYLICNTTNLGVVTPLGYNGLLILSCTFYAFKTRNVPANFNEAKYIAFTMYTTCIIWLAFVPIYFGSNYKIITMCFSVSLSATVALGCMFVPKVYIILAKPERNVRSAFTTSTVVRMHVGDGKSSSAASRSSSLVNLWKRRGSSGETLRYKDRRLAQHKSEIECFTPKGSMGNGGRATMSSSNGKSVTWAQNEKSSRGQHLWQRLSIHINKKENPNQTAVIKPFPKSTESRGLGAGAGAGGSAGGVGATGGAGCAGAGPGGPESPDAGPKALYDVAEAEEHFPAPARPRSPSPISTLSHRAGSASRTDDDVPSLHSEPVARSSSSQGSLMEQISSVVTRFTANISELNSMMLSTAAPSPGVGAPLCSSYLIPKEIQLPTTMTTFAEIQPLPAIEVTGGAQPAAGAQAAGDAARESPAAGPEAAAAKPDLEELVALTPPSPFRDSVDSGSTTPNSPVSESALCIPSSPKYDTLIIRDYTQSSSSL
quantityKind: inhibition (%)

>>> number("O=C([C@H]1CC2CCC1C2)N1CCc2nc(C#Cc3ccccc3)sc2C1 (some centres undefined)")
8
>>> number("Fc1cccc(C#Cc2nc3c(s2)CN(C2CCC2)CC3)c1")
91
>>> number("O=S(=O)(C1CC1)N1CCc2nc(C#Cc3ccccc3)sc2C1")
87
>>> number("C(#Cc1nc2c(s1)CN(C1CCCCC1)CC2)c1ccccc1")
1

a = O=C(N1CCC(F)(F)CC1)N1CCc2nc(C#Cc3ccccc3)sc2C1
b = CC(C)CN1CCc2nc(C#Cc3ccccc3)sc2C1
Between the entries labeled a and b , whose measured inhibition is lower? # reply format: chosen label
a

====

molecular target: UniProt:P41594; test: Positive allosteric modulation of human mGlu5 receptor expressed in HEK293 cells assessed as potentiation of L-glutamate-induced activity after 1 hr by FLIPR assay; assay type: cell-based
pEC50: −log10 of the molar value.
quantityKind: pEC50

>>> number("O=C(N1CCC(F)CC1)N1CCc2nc(C#Cc3ccccc3)sc2C1")
7.13
>>> number("O=C(C1CC(F)(F)C1)N1CCc2nc(C#Cc3ccccc3)sc2C1")
7.74
>>> number("O=C([C@H]1CC2CCC1C2)N1CCc2nc(C#Cc3ccccc3)sc2C1 (some centres undefined)")
7.74
>>> number("Cc1cc(C(=O)N2CCc3nc(C#Cc4ccccc4)sc3C2)no1")
5.80
>>> number("O=C(C1CCCCO1)N1CCc2nc(C#Cc3ccccc3)sc2C1 (centres undefined)")
6.49

I = CC1CCCC(C(=O)N2CCc3nc(C#Cc4ccccc4)sc3C2)C1 (centres undefined)
II = O=C(c1cccc(F)c1)N1CCc2nc(C#Cc3ccccc3)sc2C1
III = O=C(C1CCCO1)N1CCc2nc(C#Cc3ccccc3)sc2C1 (centres undefined)
IV = O=C1c2sc(C#Cc3ccccc3)nc2CN1C1CCCC1
V = Cc1nc(C(=O)N2CCc3nc(C#Cc4ccccc4)sc3C2)cs1
hey, can you rank those compounds up there by pEC50? biggest number first please Respond with the label ranking, as requested.
IV, II, I, V, III
(IV: 8.60, II: 7.52, I: 7.00, V: 6.66, III: 6.10)

A = O=S(=O)(C1CCCCC1)N1Cc2nc(C#Cc3ccccc3)sc2C1
B = CN1CCc2nc(C#Cc3ccccc3)sc2C1
Could you tell me which of A and B has the lower pEC50 reading? Write down the label of the entry you select.
A
(A: 6.82, B: 7.47)

I = O=C(C1CC(F)(F)C1)N1CCc2nc(C#Cc3ccc(F)cc3)sc2C1
II = N#Cc1cccc(C(=O)N2CCc3nc(C#Cc4ccccc4)sc3C2)c1
III = O=C1NCCc2nc(C#Cc3ccc(F)cc3)sc21
Arrange the 3 entries by pEC50 so the values rise. List labels; respect the requested ordering.
III, I, II
(III: 5.28, I: 6.82, II: 7.15)

a = Cc1cccc(C(=O)N2CCc3nc(C#Cc4ccccc4)sc3C2)n1
b = O=C(N1CCc2nc(C#Cc3ccccc3)sc2C1)N1CCC(F)(F)C1
Lower pEC50: a or b ? Respond using the label that marks the chosen record.
a
